system.tested: Cytochrome P450 2C19 (Homo sapiens, UniProt P33261)
Sequence (P33261 whole entry): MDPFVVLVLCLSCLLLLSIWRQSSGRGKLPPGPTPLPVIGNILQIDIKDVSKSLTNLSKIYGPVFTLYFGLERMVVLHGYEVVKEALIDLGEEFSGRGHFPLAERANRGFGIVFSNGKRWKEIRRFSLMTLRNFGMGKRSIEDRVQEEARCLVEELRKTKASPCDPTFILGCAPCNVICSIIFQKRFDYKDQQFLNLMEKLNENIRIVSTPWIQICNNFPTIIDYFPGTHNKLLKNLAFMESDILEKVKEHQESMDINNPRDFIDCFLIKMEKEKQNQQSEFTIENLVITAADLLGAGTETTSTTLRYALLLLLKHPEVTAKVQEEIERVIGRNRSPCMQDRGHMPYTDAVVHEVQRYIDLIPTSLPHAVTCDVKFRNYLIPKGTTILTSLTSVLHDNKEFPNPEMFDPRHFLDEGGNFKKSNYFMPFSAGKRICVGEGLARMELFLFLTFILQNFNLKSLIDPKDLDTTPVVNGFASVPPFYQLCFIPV
method.notes: Inhibition of CYP2C19 in human liver microsomes using S-mephenytoin as substrate preincubated for 5 mins followed by NADPH addition and measured after 45 mins by LC-MS/MS analysis
Type: ADME, Microsome
pIC50: −log10 of the molar value.
value.type: pIC50

molecule N#Cc1ccc(COc2cccc(C3CCN(Cc4nc5ccc(C(=O)O)cc5n4C[C@@H]4CCO4)CC3)n2)c(F)c1 [DANUGLIPRON] , pIC50 observed: < 5.00

----------
method.notes: Tmax in cynomolgus monkey at 2 mg/kg, iv
Assay type: ADME, organism-based, Macaca fascicularis
condition.details: in vivo
value.type: Tmax (h)
The figure you give is taken to be in h; do not add the unit.

Measured Tmax, N#Cc1ccc(COc2cccc(C3CCN(Cc4nc5ccc(C(=O)O)cc5n4C[C@@H]4CCO4)CC3)n2)c(F)c1 [DANUGLIPRON] : 1.21

The reported value for O=C(O)c1ccc2nc(CN3CCC(c4cccc(OCc5ccc(C6COC6)cc5F)n4)CC3)n(C[C@@H]3CCO3)c2c1 in terms of Tmax is 1.39
